Taken from PubChem BioAssay (Tox21).

experiment: qHTS RealTime-Glo MT Cell Viability Assay in HEK293 cells - 16 hour (AID 1224872); details: RealTime-Glo luminescence; series mostly up to 76.8 µM; note: nearly all actives have a fitted effect of over 50% in size
Inconclusive results are not listed. Activity calls are given as the source filed them. Calls come from the whole dose curve; as a rule, active = well fitted cell-killing curve with a large enough effect in the repeat runs; inconclusive = weak or mixed curves, or effect the other way; inactive = flat fitted curve, though single readings scatter.
Entry note: the call must match one of true = active, false = inactive

# example entries with known answers
Nc1nc(N)c(N)c(N)n1
false
CCN(CC)C(=O)N[C@@H]1C=C2c3cccc4[nH]cc(c34)C[C@@H]2N(C)C1
false
Oc1ccc2[nH]cc(CCCCN3CC=C(c4ccccc4)CC3)c2c1
true
COC(=O)C(C)N(C(=O)c1ccco1)c1c(C)cccc1C (stereo unspecified)
false
CCOP(=O)(Sc1ccccc1)Sc1ccccc1
false
CCCCn1cc[n+](C)c1.[Cl][Fe-]([Cl])([Cl])[Cl]
false

Prompt: Could you please tell me the result logged for COP(=S)(OC)Oc1nc(Cl)c(Cl)cc1Cl in this assay?
Completion: false

Prompt: Could you please tell me the result logged for C=CCBr in this assay?
Completion: false

Prompt: Could you please tell me the result logged for O=[N+]([O-])c1cc(C(F)(F)F)c(Cl)c([N+](=O)[O-])c1Nc1ncc(C(F)(F)F)cc1Cl in this assay?
Completion: true

Prompt: Could you please tell me the result logged for CSC1=N[C@@](C)(c2ccccc2)C(=O)N1Nc1ccccc1 in this assay?
Completion: false

Prompt: Could you please tell me the result logged for CCC(OC(C)=O)C(CC(C)NC)(c1ccccc1)c1ccccc1 (stereo unspecified) in this assay?
Completion: true

Prompt: Could you please tell me the result logged for Oc1ccc(Cl)c(Cl)c1 in this assay?
Completion: false

Prompt: Could you please tell me the result logged for CN(C)c1ccc(N)cc1 in this assay?
Completion: true

Prompt: Could you please tell me the result logged for NC1CCC(CC2CCC(N)CC2)CC1 (stereo unspecified) in this assay?
Completion: false

Prompt: Could you please tell me the result logged for CCCN in this assay?
Completion: false

Prompt: Could you please tell me the result logged for CN/C(=N\[N+](=O)[O-])NCc1cnc(Cl)s1 in this assay?
Completion: false

Prompt: Could you please tell me the result logged for O=C1C(Cl)=C(Cl)C(=O)C(Cl)=C1Cl in this assay?
Completion: true

Prompt: Could you please tell me the result logged for CC1CN1 (stereo unspecified) in this assay?
Completion: false

Prompt: Could you please tell me the result logged for ClCBr in this assay?
Completion: false

Prompt: Could you please tell me the result logged for O=[N+]([O-])c1cccc2cccc([N+](=O)[O-])c12 in this assay?
Completion: false

Prompt: Could you please tell me the result logged for ClC1(Cl)C2(Cl)C3(Cl)C4(Cl)C(Cl)(Cl)C5(Cl)C3(Cl)C1(Cl)C5(Cl)C24Cl (stereo unspecified) in this assay?
Completion: false

Prompt: Could you please tell me the result logged for CCC[CH2][Sn]([CH2]CCC)([CH2]CCC)[O][Sn]([CH2]CCC)([CH2]CCC)[CH2]CCC in this assay?
Completion: true

Prompt: Could you please tell me the result logged for [Cl-].[Cl-].[Sn+2] in this assay?
Completion: false

Prompt: Could you please tell me the result logged for O=C(Nc1ccc(F)cc1F)c1cccnc1Oc1cccc(C(F)(F)F)c1 in this assay?
Completion: false

Prompt: Could you please tell me the result logged for C[C@]12C/C(=C/O)C(=O)C[C@@H]1CC[C@@H]1[C@@H]2CC[C@@]2(C)[C@H]1CC[C@]2(C)O in this assay?
Completion: false
